# TARGET OR TEST SYSTEM: T1, G-CSF receptor (natural G-CSF receptor, found on hematopoietic cells) (mouse (bone marrow cells of Balb C …, UniProt P40223 26-837))
# T1 sequence (looked up): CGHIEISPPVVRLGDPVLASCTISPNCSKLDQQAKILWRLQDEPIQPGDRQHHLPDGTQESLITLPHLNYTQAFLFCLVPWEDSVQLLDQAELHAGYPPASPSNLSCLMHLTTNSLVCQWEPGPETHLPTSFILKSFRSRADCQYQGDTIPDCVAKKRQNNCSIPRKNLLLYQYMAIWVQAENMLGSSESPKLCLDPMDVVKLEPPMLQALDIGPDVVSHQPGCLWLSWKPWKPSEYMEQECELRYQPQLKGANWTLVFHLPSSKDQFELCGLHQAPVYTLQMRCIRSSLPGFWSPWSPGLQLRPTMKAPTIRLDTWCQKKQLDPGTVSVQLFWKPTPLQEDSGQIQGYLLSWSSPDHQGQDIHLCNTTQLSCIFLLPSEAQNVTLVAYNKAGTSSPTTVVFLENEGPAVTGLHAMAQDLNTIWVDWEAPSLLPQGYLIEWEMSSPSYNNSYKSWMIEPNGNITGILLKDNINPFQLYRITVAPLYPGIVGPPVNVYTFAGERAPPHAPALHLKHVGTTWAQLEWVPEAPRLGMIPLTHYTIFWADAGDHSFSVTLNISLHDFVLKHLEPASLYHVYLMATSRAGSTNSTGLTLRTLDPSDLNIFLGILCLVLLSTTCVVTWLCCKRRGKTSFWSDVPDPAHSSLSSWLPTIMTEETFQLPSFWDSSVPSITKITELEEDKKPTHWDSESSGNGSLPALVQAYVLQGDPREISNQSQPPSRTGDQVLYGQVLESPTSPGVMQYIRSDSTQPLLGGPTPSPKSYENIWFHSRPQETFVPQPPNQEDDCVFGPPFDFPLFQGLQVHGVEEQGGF
# TEST NAME: cell-based or functional assay
Overview of recorded % Normal G-CSF Activity (3H-thymidine uptake, mouse bone marrow cells) for various binders
// units = %; emit number, no label

1) G-CSF analog Gln21->Ala21 (ligand) MTPLGPASSLPQSFLLKCLEAVRKIQGDGAALQEKLCATYKLCHPEELVLLGHSLGIPWAPLSSCPSQALQLAGCLSQLHSGLFLYQGLLQALEGISPELGPTLDTLQLDVADFATTIWQQMEELGMAPALQPTQGAMPAFASAFQRRAGGVLVASHLQSFLEVSYRVLRHLAQP: 9.6
2) G-CSF analog Asp113->Ala113 (ligand) MTPLGPASSLPQSFLLKCLEQVRKIQGDGAALQEKLCATYKLCHPEELVLLGHSLGIPWAPLSSCPSQALQLAGCLSQLHSGLFLYQGLLQALEGISPELGPTLDTLQLDVAAFATTIWQQMEELGMAPALQPTQGAMPAFASAFQRRAGGVLVASHLQSFLEVSYRVLRHLAQP: 0
3) G-CSF analog Lys41->Ala41 (ligand) MTPLGPASSLPQSFLLKCLEQVRKIQGDGAALQEKLCATYALCHPEELVLLGHSLGIPWAPLSSCPSQALQLAGCLSQLHSGLFLYQGLLQALEGISPELGPTLDTLQLDVADFATTIWQQMEELGMAPALQPTQGAMPAFASAFQRRAGGVLVASHLQSFLEVSYRVLRHLAQP: 81

The binder identified as G-CSF analog Asp28->Ala28 (ligand) MTPLGPASSLPQSFLLKCLEQVRKIQGAGAALQEKLCATYKLCHPEELVLLGHSLGIPWAPLSSCPSQALQLAGCLSQLHSGLFLYQGLLQALEGISPELGPTLDTLQLDVADFATTIWQQMEELGMAPALQPTQGAMPAFASAFQRRAGGVLVASHLQSFLEVSYRVLRHLAQP registered its % Normal G-CSF Activity (3H-thymidine uptake, mouse bone marrow cells) at 147

The binder identified as G-CSF analog Lys17->Ala17 (ligand) MTPLGPASSLPQSFLLACLEQVRKIQGDGAALQEKLCATYKLCHPEELVLLGHSLGIPWAPLSSCPSQALQLAGCLSQLHSGLFLYQGLLQALEGISPELGPTLDTLQLDVADFATTIWQQMEELGMAPALQPTQGAMPAFASAFQRRAGGVLVASHLQSFLEVSYRVLRHLAQP registered its % Normal G-CSF Activity (3H-thymidine uptake, mouse bone marrow cells) at 70

The binder identified as G-CSF analog Asp28->Ala28; Asp110->Ala110 (ligand) MTPLGPASSLPQSFLLKCLEQVRKIQGAGAALQEKLCATYKLCHPEELVLLGHSLGIPWAPLSSCPSQALQLAGCLSQLHSGLFLYQGLLQALEGISPELGPTLDTLQLAVADFATTIWQQMEELGMAPALQPTQGAMPAFASAFQRRAGGVLVASHLQSFLEVSYRVLRHLAQP registered its % Normal G-CSF Activity (3H-thymidine uptake, mouse bone marrow cells) at 20.6

The binder identified as G-CSF analog Glu20->Ala20 (ligand) MTPLGPASSLPQSFLLKCLAQVRKIQGDGAALQEKLCATYKLCHPEELVLLGHSLGIPWAPLSSCPSQALQLAGCLSQLHSGLFLYQGLLQALEGISPELGPTLDTLQLDVADFATTIWQQMEELGMAPALQPTQGAMPAFASAFQRRAGGVLVASHLQSFLEVSYRVLRHLAQP registered its % Normal G-CSF Activity (3H-thymidine uptake, mouse bone marrow cells) at 0

Sourced from patent US20030171559A1
